test: Multi-component pharmacokinetics in rat plasma after oral administration of RB, RPA or RB-RPA extracts (UPLC-HRMS, non-compartmental analysis); format: in vivo, Sprague-Dawley rats; details: rat plasma, oral RB-RPA mixed extracts (45 g-herb/kg RB + 45 g-herb/kg RPA), mean ± SD, n = 7
Flag rule - Cmax less than 20 ng/mL flags t; the remaining entries get f.

smiles structure	class name
C[C@H]1O[C@@H](O[C@H]2CC[C@@]3(C)[C@@H](CC[C@]4(C)[C@@H]3C=C[C@]35OC[C@@]6(CCC(C)(C)C[C@H]63)[C@@H](O)C[C@]54C)[C@]2(C)CO)[C@H](O)[C@@H](O)[C@H]1O	t
C[C@H]1O[C@@H](O[C@@H]2CC[C@@]3(C)[C@@H](CC[C@]4(C)[C@@H]3C=C[C@]35OC[C@@]6(CCC(C)(C)C[C@H]63)[C@@H](O)C[C@]54C)[C@@]2(C)CO)[C@H](O)[C@@H](O)[C@H]1O	t
CC1(C)CC[C@]23CO[C@@]4(C=C[C@@H]5[C@@]6(C)CC[C@H](O)[C@@](C)(CO)[C@@H]6CC[C@@]5(C)[C@]4(C)C[C@@H]2O)[C@@H]3C1	f
